Sourced from patent US8372890B2

tested on: Lipid Peroxidation (brain homogenate auto-oxidation); experiment: Brain homogenate auto-oxidation test (lipid peroxide production inhibition, thiobarbituric acid method); assay type: biochemical
Would you mind labelling by Inhibitory Activities on Lipid Peroxidation IC50? At or over 2 µg/mL is condition met, under is condition not met.

Reference set, count: 6
- compound: "O=c1oc2c(O)c(O)cc3c(=O)oc4c(O)c(O)cc1c4c23 [ellagic acid]"
  class.label: "condition not met"
- compound: "O=C(/C=C/c1ccc(O)c(O)c1)O[C@H]1[C@H](O)C[C@](O)(C(=O)O)C[C@H]1OC(=O)/C=C/c1ccc(O)c(O)c1 [4,5-DCQA]"
  class.label: "condition met"
- compound: "O=C(/C=C/c1ccc(O)c(O)c1)O[C@@H]1[C@H](O)C[C@@](O)(C(=O)O)C[C@H]1OC(=O)/C=C/c1ccc(O)c(O)c1 [3,4-DCQA, 3,4-dicaffeoylquinic acid]"
  class.label: "condition not met"
- compound: "O=C(/C=C/c1ccc(O)c(O)c1)O[C@@H]1C[C@](O)(C(=O)O)C[C@@H](O)[C@H]1O [chlorogenic acid]"
  class.label: "condition met"
- compound: "O=C(O)/C=C/c1ccc(O)c(O)c1 [caffeic acid]"
  class.label: "condition met"
- compound: "O=C(/C=C/c1ccc(O)c(O)c1)O[C@@H]1C[C@](O)(C(=O)O)C[C@@H](OC(=O)/C=C/c2ccc(O)c(O)c2)[C@H]1O [3,5-DCQA]"
  class.label: "condition met"

Next:
In plain terms: is recorded Inhibitory Activities on Lipid Peroxidation IC50 at least 2 µg/mL for Cc1c(C)c2c(c(C)c1O)CC[C@@](C)(CCC[C@H](C)CCC[C@H](C)CCCC(C)C)O2 [α-tocopherol] ?
condition met

----------
Catalogue of IC50 values
system: Lipid Peroxidation (brain homogenate auto-oxidation); experiment: Brain homogenate auto-oxidation test (lipid peroxide production inhibition, thiobarbituric acid method); assay type: biochemical; conditions: value in parentheses; read-out: Inhibitory Activities on Lipid Peroxidation IC50
I only need the number, in µM, no unit after it.

Can you look up the measured IC50 of O=c1oc2c(O)c(O)cc3c(=O)oc4c(O)c(O)cc1c4c23 for me?
1.85

And the next one, O=C(/C=C/c1ccc(O)c(O)c1)O[C@@H]1[C@H](O)C[C@@](O)(C(=O)O)C[C@H]1OC(=O)/C=C/c1ccc(O)c(O)c1 ?
2.87

Further, for O=C(/C=C/c1ccc(O)c(O)c1)O[C@@H]1C[C@](O)(C(=O)O)C[C@@H](O)[C@H]1O ?
37.3

Repeat with O=C(/C=C/c1ccc(O)c(O)c1)O[C@H]1[C@H](O)C[C@](O)(C(=O)O)C[C@H]1OC(=O)/C=C/c1ccc(O)c(O)c1
6.55

Here is the next compound: Cc1c(C)c2c(c(C)c1O)CC[C@@](C)(CCC[C@H](C)CCC[C@H](C)CCCC(C)C)O2
166

For O=C(O)/C=C/c1ccc(O)c(O)c1 then?
55.3

What do you get for O=C(/C=C/c1ccc(O)c(O)c1)O[C@@H]1C[C@](O)(C(=O)O)C[C@@H](OC(=O)/C=C/c2ccc(O)c(O)c2)[C@H]1O ?
4.23
